These entries and their values trace back to the supplement of paper PMC10065799.

Overview of recorded phosphorylation enrichment for various sequences
test system: c-Src; assay: phosphorylation enrichment, bacterial display (enrichment ratio); higher = better substrate or ligand; peptides without Tyr show the background
endpoint: phosphorylation enrichment

{"columns": ["orderedResidues", "endpoint", "testValue"],
 "data": [
  ["FYNSEYGELSE [FLT4_Y1337]", "phosphorylation enrichment", 1.69],
  ["DPNQQYFIAMD [TBX15_Y159_H156N_YF]", "phosphorylation enrichment", 0.482],
  ["NKFVAYIESQG [KDM4B_Y34_YF]", "phosphorylation enrichment", 0.452],
  ["TQNAVYSAANF [DDX5_Y535_G533A_YF]", "phosphorylation enrichment", 8.46],
  ["NTFEKYWPFFQ [GATM_Y103_YF]", "phosphorylation enrichment", 0.935],
  ["DAGTDYVGISR [FREM2_Y2061]", "phosphorylation enrichment", 0.459],
  ["LENSTYQYIHV [CRB1_Y760_R764H]", "phosphorylation enrichment", 3.15]
]}

* * *

target: FGFR3 (UniProt P22607); test: phosphorylation enrichment, bacterial display (enrichment ratio); higher = better substrate or ligand; peptides without Tyr show the background
Sequence (P22607 whole entry, looked up): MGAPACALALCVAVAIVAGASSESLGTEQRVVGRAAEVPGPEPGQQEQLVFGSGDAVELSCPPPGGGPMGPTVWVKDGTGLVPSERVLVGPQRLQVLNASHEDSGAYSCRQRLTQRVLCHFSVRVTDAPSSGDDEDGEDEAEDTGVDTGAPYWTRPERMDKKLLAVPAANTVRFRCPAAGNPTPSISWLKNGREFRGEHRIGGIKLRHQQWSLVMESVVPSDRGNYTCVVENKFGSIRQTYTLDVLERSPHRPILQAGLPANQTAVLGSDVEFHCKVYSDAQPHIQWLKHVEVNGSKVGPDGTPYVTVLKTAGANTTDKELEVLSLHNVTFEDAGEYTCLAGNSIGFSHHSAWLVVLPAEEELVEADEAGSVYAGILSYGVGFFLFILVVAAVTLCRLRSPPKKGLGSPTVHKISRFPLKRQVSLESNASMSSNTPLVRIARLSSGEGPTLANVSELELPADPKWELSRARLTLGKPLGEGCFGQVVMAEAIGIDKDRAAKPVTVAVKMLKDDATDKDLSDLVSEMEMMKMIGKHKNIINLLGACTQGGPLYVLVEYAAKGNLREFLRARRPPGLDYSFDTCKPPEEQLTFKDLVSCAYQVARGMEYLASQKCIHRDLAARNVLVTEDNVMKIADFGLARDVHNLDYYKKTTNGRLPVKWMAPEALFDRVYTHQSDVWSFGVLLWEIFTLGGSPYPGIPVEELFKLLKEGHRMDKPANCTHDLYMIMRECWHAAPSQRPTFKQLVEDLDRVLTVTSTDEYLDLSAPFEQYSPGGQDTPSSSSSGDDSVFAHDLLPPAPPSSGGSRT
Assign a class from recorded phosphorylation enrichment; defined classes: class 1: < 0.6; class 2: ≥ 0.6 and < 0.7; class 3: ≥ 0.7

{"columns": ["orderedResidues", "assignedCategory"],
 "data": [
  ["ENAGYYFQVSA", "class 3"],
  ["YRKNTYNVKST [SYNE2_Y575_I574T]", "class 1"],
  ["MENFIYESMRY [CYP19A1_Y361]", "class 3"],
  ["FEEDSYVKRSQ [RET_Y905_YF]", "class 1"],
  ["IFGVSYGEFRF [CFTR_Y512_D513G_YF]", "class 2"],
  ["FRQNGYIPGSN [PCDHGA1_Y895_V894G_YF]", "class 1"],
  ["NGLVACKDGKL [PMM2_Y76_Y76C]", "class 1"],
  ["EEGNPYYSSTR [MCCC2_Y520_A524T]", "class 3"],
  ["KNRDVSSSDYF [USP24_Y2134_Y2134S]", "class 1"],
  ["RLMLQYDAVVN [SLC25A32_Y152]", "class 2"],
  ["TDIVAYSGRVQ [SPTBN2_Y477]", "class 3"],
  ["SHGKRYRVPSD [HHIPL2_Y395]", "class 1"],
  ["APTSGYREFVH [IL4R_Y575_Q576R]", "class 1"],
  ["FADIAYNYRDG [PAH_Y166_H170D]", "class 2"],
  ["RLGDLYKEEMR [VIM_Y150_E151K]", "class 3"],
  ["QLRPGYFPIPV [BAG3_Y93_I94F]", "class 1"],
  ["HISGVYKLPPD [ANGPTL7_Y145_R140H]", "class 2"],
  ["DFPMGYPSYLA [TBCK_Y153_I151M]", "class 1"],
  ["TQNAVYSAANF [DDX5_Y535_G533A_YF]", "class 1"],
  ["TAIFIYIRPKA [OR10C1_Y258_L255I]", "class 3"],
  ["FFCKFYNKSED [RYR1_Y4864_R4861C]", "class 3"]
]}

* * *

molecular target: c-Src SH2; test: SH2 binding enrichment of the phosphorylated peptide, bacterial display (enrichment ratio); higher = better substrate or ligand; peptides without Tyr show the background;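 also: peptide library displayed on the E. coli surface as eCPX fusions, selected cells deep-sequenced, score is each peptide's frequency after selection divided by its frequency in the input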
endpoint: SH2 binding enrichment

{"columns": ["orderedResidues", "testValue"],
 "data": [
  ["SSSNPYSTVTM [ACTN2_Y599]", 3.42],
  ["CTTIHYNYVCN [TP53_Y234_M237V]", 7.58],
  ["FDGKEYDPVEA [MAPRE2_Y167_YF]", 0.795],
  ["KQNSLYSFSDH [CCDC82_Y331]", 0.466],
  ["PVDVAYRHGFF [PLEC_Y2967_R2969H_YF]", 0.552],
  ["SEVVPYEPPEV [TP53_Y220_V216E]", 0.563]
]}

* * *

target: FGFR1 (UniProt P11362); assay: phosphorylation enrichment, bacterial display (enrichment ratio); higher = better substrate or ligand; peptides without Tyr show the background
Sequence (P11362 whole entry, looked up): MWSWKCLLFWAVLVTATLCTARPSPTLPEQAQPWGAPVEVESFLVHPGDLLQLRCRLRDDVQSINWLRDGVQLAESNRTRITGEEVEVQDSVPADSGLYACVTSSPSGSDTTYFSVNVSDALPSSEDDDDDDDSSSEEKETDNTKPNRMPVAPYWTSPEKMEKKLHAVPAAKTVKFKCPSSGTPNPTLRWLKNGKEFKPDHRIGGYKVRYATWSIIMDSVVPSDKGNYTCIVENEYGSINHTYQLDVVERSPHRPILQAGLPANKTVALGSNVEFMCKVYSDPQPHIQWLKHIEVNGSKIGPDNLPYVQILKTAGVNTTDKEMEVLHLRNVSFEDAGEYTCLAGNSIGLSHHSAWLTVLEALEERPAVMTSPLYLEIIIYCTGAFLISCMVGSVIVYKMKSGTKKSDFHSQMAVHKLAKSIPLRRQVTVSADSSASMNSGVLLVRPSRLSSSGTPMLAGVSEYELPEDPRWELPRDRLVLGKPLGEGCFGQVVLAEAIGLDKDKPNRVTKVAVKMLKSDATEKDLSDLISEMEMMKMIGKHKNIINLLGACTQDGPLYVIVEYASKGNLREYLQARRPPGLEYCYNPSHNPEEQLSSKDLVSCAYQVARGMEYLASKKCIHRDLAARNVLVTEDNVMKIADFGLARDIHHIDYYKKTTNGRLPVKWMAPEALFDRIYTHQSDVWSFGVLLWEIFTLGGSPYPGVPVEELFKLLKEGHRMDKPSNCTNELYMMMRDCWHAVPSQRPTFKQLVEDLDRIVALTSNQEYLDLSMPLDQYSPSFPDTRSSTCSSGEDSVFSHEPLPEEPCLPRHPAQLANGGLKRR
Measured phosphorylation enrichment, listed per entry for reference.

{"columns": ["orderedResidues", "phosphorylation enrichment"],
 "data": [
  ["ICGVSYDEYRY [CFTR_Y512_F508C]", 0.478],
  ["QRVLLYVRRET [GRHL3_Y518]", 0.676],
  ["RNVFFYSFLLK [PTEN_Y178_Y174N_YF]", 0.586],
  ["QLCVNYPGGYT [PROS1_Y259]", 0.767],
  ["SFMVRYNQPRV [GRIN2D_Y736_YF]", 0.473],
  ["KGELCYMHSRV [ABCD1_Y281_R280C]", 0.479],
  ["CERLPYDASKW [FLT1_Y815]", 0.523],
  ["FDSPFYQDSLP [TSC1_Y508_R509Q]", 0.357],
  ["RLLRGHDQFAF [HLA-B_Y137_YF]", 0.309],
  ["RSRRSYSCQVM [IGLL1_Y192]", 0.586],
  ["AVDMTYDGHPV [FLNB_Y1020_V1018M]", 0.576],
  ["HKANEYYPVVL [ADAMTS18_Y764]", 23.2],
  ["DVRQEYPGMIL [PLXND1_Y616]", 0.455],
  ["GLQDEYDFKCK [STAT1_Y170_D165G]", 0.626],
  ["WVFNHYRWIIW [BRCA2_Y2624_YF]", 0.452],
  ["PGQRVYVVAES [SHH_Y316_R321S]", 0.494],
  ["SPYMLYQYLKQ [RPAP3_Y567_D564Y]", 5.62],
  ["RLRVVYPWTQR [HBB_Y36_L33R]", 0.422],
  ["RLGDLYKEEMR [VIM_Y150_E151K]", 0.674],
  ["RDMNACIRPSP [MMAA_Y207_Y207C]", 0.934],
  ["SQQTFYPVSNM [ABCD1_Y181_R182P_YF]", 0.507],
  ["FETVKYFNNER [ABCB7_Y345_YF]", 0.417],
  ["KFANSYRMEPL [TCTE3_Y87]", 0.443],
  ["PTKNDYWAMLA [WWOX_Y287]", 7.82],
  ["MKGEFYRFLAE [YWHAG_Y131_D129E_YF]", 0.336],
  ["VGTKRYMASEV [ACVRL1_Y375_P378S]", 0.411],
  ["VYYGSYSCPYG [NKAP_Y104_R106C]", 4.04],
  ["SFPREYGSQEG [RBM10_Y48_YF]", 0.491],
  ["LANNEYFFQVC", 12.8],
  ["HTLQLYRCREE [ALPK3_Y342]", 0.898],
  ["DIPIRYSIMGV [CDH4_Y205_T208M]", 0.481],
  ["NQNIGYELGHR [KCNN3_Y268_K269E]", 0.343],
  ["FADIAYNYRHG [PAH_Y166]", 0.403],
  ["HSVLNYGVCVC [JAK2_Y613_L609S]", 0.674]
]}

* * *

target: Fes (UniProt P07332); assay: phosphorylation enrichment, bacterial display (enrichment ratio); higher = better substrate or ligand; peptides without Tyr show the background
Sequence (P07332 whole entry, looked up): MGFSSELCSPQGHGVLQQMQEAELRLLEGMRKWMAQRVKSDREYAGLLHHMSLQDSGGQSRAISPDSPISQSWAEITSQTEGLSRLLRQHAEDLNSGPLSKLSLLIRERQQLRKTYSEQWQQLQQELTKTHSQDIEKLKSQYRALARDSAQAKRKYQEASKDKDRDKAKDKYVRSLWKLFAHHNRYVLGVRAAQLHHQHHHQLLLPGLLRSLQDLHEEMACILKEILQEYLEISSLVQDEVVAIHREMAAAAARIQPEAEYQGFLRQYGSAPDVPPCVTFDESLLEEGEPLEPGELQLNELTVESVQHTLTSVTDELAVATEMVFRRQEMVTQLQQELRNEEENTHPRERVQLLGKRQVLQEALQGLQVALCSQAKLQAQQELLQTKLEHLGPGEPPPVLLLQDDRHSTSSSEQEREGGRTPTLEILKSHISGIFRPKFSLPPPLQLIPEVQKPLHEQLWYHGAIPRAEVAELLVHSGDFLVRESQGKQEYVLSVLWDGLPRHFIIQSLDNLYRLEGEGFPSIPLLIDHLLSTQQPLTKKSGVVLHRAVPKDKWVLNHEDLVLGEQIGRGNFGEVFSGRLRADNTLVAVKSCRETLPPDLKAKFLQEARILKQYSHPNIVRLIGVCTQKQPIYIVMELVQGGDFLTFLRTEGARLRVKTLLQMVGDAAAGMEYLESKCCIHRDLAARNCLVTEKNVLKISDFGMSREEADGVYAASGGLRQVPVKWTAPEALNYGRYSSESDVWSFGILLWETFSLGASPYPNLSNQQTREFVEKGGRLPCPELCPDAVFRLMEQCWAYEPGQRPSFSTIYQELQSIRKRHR
Each entry below carries its recorded phosphorylation enrichment.
endpoint: phosphorylation enrichment

{"columns": ["orderedResidues", "testValue"],
 "data": [
  ["HNGVSYYINLC [IGF2R_Y2024]", 1.5],
  ["LAIELYVVVCK [RHO_Y136_R135L]", 3.23],
  ["GHLYAYDWISI [BEST1_Y227]", 3.56],
  ["MTKEQYIKMNR [ARFGEF2_Y797]", 0.558],
  ["LARDMHDKEFF [MET_Y1230_Y1230H_YF]", 0.864],
  ["KVKPIYFHTQG [AR_Y916]", 0.708],
  ["LAGRYYALKSM [CKB_Y174]", 0.852],
  ["KGELCYMHSRV [ABCD1_Y281_R280C]", 0.757],
  ["SGVVPYEPPEV [TP53_Y220_V216G]", 1.21],
  ["EEGNPYYSSTR [MCCC2_Y520_A524T]", 1.1],
  ["KGELRYMHSPV [ABCD1_Y281_R285P]", 0.674],
  ["RRERLYGGGGG [FUS_Y526_P525L]", 1.14],
  ["SDLTDYLMKIL [ACTA1_Y190_R185S]", 1.22],
  ["NHFKIYNLCAE [PTEN_Y68_YF]", 0.766],
  ["HSPLRYTSILT [OR51B6_Y130_R125H]", 1.4],
  ["PSPMPYAFCQM [FOXL2_Y215_S217F]", 2.17],
  ["TTASRYLKVSD [MYOM2_Y871_N869S]", 0.636],
  ["KPRKPYTIKKP [BRD2_Y715]", 1.94],
  ["NKYVAYIESQG [KDM4B_Y34]", 0.885],
  ["SFMVRYNQPRV [GRIN2D_Y736_YF]", 0.954],
  ["FGSVDCWEKFF [EEF1AKNMT_Y16_Y16C]", 1.24],
  ["RRYVYYYSYLL [PTEN_Y177]", 0.768],
  ["KMMGRYEMYAR [UPB1_Y362_T359M]", 0.711],
  ["AVDMTYDGHPV [FLNB_Y1020_V1018M]", 0.926],
  ["LNPDGYKKAFE [CPXM2_Y427_E428K_YF]", 2.1]
]}
